- Test system: Vero
- test: Growth inhibition of African green monkey Vero cells after 48 hrs by sulforhodamine B assay
- Assay type: cell-based
- testConditions: chlorocebus sabaeus, vero, 48 h
property: TGI

> print(dat)
                                   molecule  resultvalue
1  CC1=CC[C@H](C(C)(C)NC(=S)N/N=C/c2ccccc2Cl)CC1     > 100 µM
2  CC1=CC[C@H](C(C)(C)NC(=S)N/N=C/c2ccc(F)cc2)CC1     > 100 µM
3  CC1=CC[C@H](C(C)(C)NC(=S)N/N=C/c2ccccc2[N+](=O)[O-])CC1     > 100 µM
4  COc1ccc(/C(C)=N/NC(=S)NC(C)(C)[C@H]2CC=C(C)CC2)cc1     > 100 µM
5       C=C(C)[C@H]1CC=C(C)CC1 [D-LIMONENE]     > 100 µM
6  COc1ccc(/C=N/NC(=S)NC(C)(C)[C@H]2CC=C(C)CC2)cc1      70.1 µM
